measurement.setup: in isopropyl acetate, 295.15 K
assay.endpoint: solubility (mole fraction)

>>> quantitative_result("C[C@@H]1CC[C@H]2[C@@H](C)C(=O)O[C@@H]3O[C@@]4(C)CC[C@@H]1[C@]32OO4")
0.0107

----------
measurement.setup: in acetonitrile, 309.15 K
assay.endpoint: solubility (mole fraction)

>>> quantitative_result("C[C@@H]1CC[C@H]2[C@@H](C)C(=O)O[C@@H]3O[C@@]4(C)CC[C@@H]1[C@]32OO4")
0.00329

----------
measurement.setup: in n-heptane, 298.15 K
assay.endpoint: solubility (mole fraction)

>>> quantitative_result("C[C@@H]1CC[C@H]2[C@@H](C)C(=O)O[C@@H]3O[C@@]4(C)CC[C@@H]1[C@]32OO4")
0.00013

----------
measurement.setup: in n-hexane, 289.15 K
assay.endpoint: solubility (mole fraction)

>>> quantitative_result("C[C@@H]1CC[C@H]2[C@@H](C)C(=O)O[C@@H]3O[C@@]4(C)CC[C@@H]1[C@]32OO4")
"7e-05"

----------
measurement.setup: in n-hexane, 295.15 K
assay.endpoint: solubility (mole fraction)

>>> quantitative_result("C[C@@H]1CC[C@H]2[C@@H](C)C(=O)O[C@@H]3O[C@@]4(C)CC[C@@H]1[C@]32OO4")
0.000111

----------
measurement.setup: in methanol, 289.15 K
assay.endpoint: solubility (mole fraction)

>>> quantitative_result("C[C@@H]1CC[C@H]2[C@@H](C)C(=O)O[C@@H]3O[C@@]4(C)CC[C@@H]1[C@]32OO4")
0.00078

----------
measurement.setup: in acetone, 284.15 K
assay.endpoint: solubility (mole fraction)

>>> quantitative_result("C[C@@H]1CC[C@H]2[C@@H](C)C(=O)O[C@@H]3O[C@@]4(C)CC[C@@H]1[C@]32OO4")
0.00405

----------
measurement.setup: in ethyl acetate, 284.15 K
assay.endpoint: solubility (mole fraction)

>>> quantitative_result("C[C@@H]1CC[C@H]2[C@@H](C)C(=O)O[C@@H]3O[C@@]4(C)CC[C@@H]1[C@]32OO4")
0.00557

----------
measurement.setup: in ethanol, 304.15 K
assay.endpoint: solubility (mole fraction)

>>> quantitative_result("C[C@@H]1CC[C@H]2[C@@H](C)C(=O)O[C@@H]3O[C@@]4(C)CC[C@@H]1[C@]32OO4")
0.00631

----------
measurement.setup: in methanol, 295.15 K
assay.endpoint: solubility (mole fraction)

>>> quantitative_result("C[C@@H]1CC[C@H]2[C@@H](C)C(=O)O[C@@H]3O[C@@]4(C)CC[C@@H]1[C@]32OO4")
0.00117

----------
measurement.setup: in methanol, 284.15 K
assay.endpoint: solubility (mole fraction)

>>> quantitative_result("C[C@@H]1CC[C@H]2[C@@H](C)C(=O)O[C@@H]3O[C@@]4(C)CC[C@@H]1[C@]32OO4")
0.00056

----------
measurement.setup: in n-butanol, 298.15 K
assay.endpoint: solubility (mole fraction)

>>> quantitative_result("C[C@@H]1CC[C@H]2[C@@H](C)C(=O)O[C@@H]3O[C@@]4(C)CC[C@@H]1[C@]32OO4")
0.00253

----------
measurement.setup: in MTBE, 304.15 K
assay.endpoint: solubility (mole fraction)

>>> quantitative_result("C[C@@H]1CC[C@H]2[C@@H](C)C(=O)O[C@@H]3O[C@@]4(C)CC[C@@H]1[C@]32OO4")
0.00421

src = BigSolDB 2.1
